Reported pIC50 is given for each of the following compounds.
target_desc: Tyrosinase (Homo sapiens)
Sequence (P14679 whole entry): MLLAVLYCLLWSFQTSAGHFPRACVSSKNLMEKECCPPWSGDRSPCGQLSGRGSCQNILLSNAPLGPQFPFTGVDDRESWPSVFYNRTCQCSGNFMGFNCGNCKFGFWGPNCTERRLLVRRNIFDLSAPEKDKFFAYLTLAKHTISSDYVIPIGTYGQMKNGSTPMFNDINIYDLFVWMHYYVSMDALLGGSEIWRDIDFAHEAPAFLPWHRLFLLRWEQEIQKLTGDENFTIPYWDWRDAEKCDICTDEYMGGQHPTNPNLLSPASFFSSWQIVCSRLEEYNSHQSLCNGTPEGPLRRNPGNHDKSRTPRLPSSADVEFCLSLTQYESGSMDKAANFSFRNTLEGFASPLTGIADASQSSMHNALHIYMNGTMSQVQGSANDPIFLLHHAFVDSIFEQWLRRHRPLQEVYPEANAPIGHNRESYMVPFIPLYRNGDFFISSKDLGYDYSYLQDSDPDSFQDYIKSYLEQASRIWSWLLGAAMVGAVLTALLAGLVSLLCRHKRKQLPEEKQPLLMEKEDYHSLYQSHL
Just the number, please; pIC50 means minus log10 of the concentration in mol/L.

CC(C)(O)[C@@H]1CC[C@](C)([C@H]2[C@@H](O)C[C@@]3(C)[C@@H]4C[C@H](O[C@@H]5OC[C@@H](O)[C@H](O)[C@H]5O)[C@H]5C(C)(C)[C@@H](O[C@@H]6OC[C@@H](O)[C@H](O)[C@H]6O[C@@H]6OC[C@H](O)[C@H](O)[C@H]6O)CC[C@@]56C[C@@]46CC[C@]23C)O1 [ASKENDOSIDE D] ... 4.31
CC(C)(O)CCC(=O)[C@@](C)(O)[C@H]1[C@H](O)C[C@@]2(C)[C@@H]3CC=C4[C@@H](C=C(O[C@@H]5O[C@H](CO)[C@@H](O)[C@H](O)[C@H]5O)C(=O)C4(C)C)[C@]3(C)C(=O)C[C@]12C [BRYOAMARIDE] ... 4.07
C[C@@H]1O[C@@H](O[C@H]2C[C@@H]3[C@]4(CC[C@]5(C)[C@@H]([C@@]6(C)CC[C@@H](C(C)(C)O)O6)[C@@H](O)C[C@@]35C)C[C@@]43CC[C@H](O[C@@H]4OC[C@@H](O)[C@H](O)[C@H]4O)C(C)(C)[C@H]23)[C@H](O)[C@H](O)[C@H]1O [CYCLOCARPOSIDE] ... 3.99

Reported pIC50 for C[C@@H]1C[C@H]2O[C@]3(C[C@@]4(C)[C@@H]5[C@@H](O)C[C@H]6C(C)(C)[C@@H](O[C@@H]7OC[C@@H](O)[C@H](O)[C@H]7O)CC[C@@]67C[C@@]57CC[C@]4(C)[C@@H]13)O[C@@H]2C(C)(C)O[C@@H]1O[C@H](CO)[C@@H](O)[C@H](O)[C@H]1O [CYCLOORBICOSIDE G] was 4.26

Reported pIC50 for CC(C)(O)[C@@H]1CC[C@](C)([C@H]2[C@@H](O)C[C@@]3(C)[C@@H]4C[C@H](O[C@H]5O[C@@H](CO)[C@H](O)[C@H](O)[C@@H]5O)[C@H]5C(C)(C)[C@@H](O[C@@H]6OC[C@@H](O)[C@H](O)[C@H]6O)CC[C@@]56C[C@@]46CC[C@]23C)O1 [CYCLOSIEVERSIOSIDE] was 4.04

Reported pIC50 for CC(=O)O[C@@H]1[C@@H](O[C@@H]2OC[C@H](O)[C@H](O)[C@H]2O)[C@H](O[C@H]2CC[C@]34C[C@]35CC[C@]3(C)[C@@H]([C@@]6(C)CC[C@H](C(C)(C)O)O6)[C@@H](O)C[C@@]3(C)[C@@H]5C[C@H](O[C@@H]3OC[C@@H](O)[C@H](O)[C@H]3O)[C@H]4C2(C)C)OC[C@H]1O [ASKENDOSIDE B] was 4.86
